Test system: wheat powdery mildew
assay info: protectant activity in vivo against wheat powdery mildew
study conditions: 100 mg/L; protectant activity
Each item that follows carries a reported control effect against wheat powdery mildew (%).
Report the figure in % without appending any unit label.

These solved cases illustrate the format of a correct answer.
>>> number("CCc1ncnc(NCCc2ccc(Oc3ccc(C(F)(F)F)cn3)cc2)c1Cl")
100
>>> number("CCc1ncnc(NC(C)c2ccc(Oc3ccc(F)cc3)nc2)c1Cl (stereo not shown) [CK9, reference compound]")
0
>>> number("CC(F)c1ncnc(NCCc2ccc(Oc3ncc(C(F)(F)F)cc3Cl)cc2)c1Cl (stereo not shown) [CK2, reference compound]")
100

In plain terms, CCc1ncnc(NCCc2ccc(Oc3ccc(C#N)cc3F)cc2)c1Cl has a documented control effect against wheat powdery mildew (%) of 100

In plain terms, Cc1ncnc(NCCc2ccc(Oc3ccc(C#N)cc3F)cc2)c1Cl has a documented control effect against wheat powdery mildew (%) of 100

In plain terms, CCc1ncnc(NCCc2ccc(Oc3ccc(C(F)(F)F)cc3Cl)cc2)c1Cl has a documented control effect against wheat powdery mildew (%) of 100

In plain terms, Cc1ncnc(NCCc2ccc(Oc3ccccc3)nc2)c1Cl has a documented control effect against wheat powdery mildew (%) of 98

###

Tested on: Green peach aphids (Myzus Persicae Sulzer)
assay info: bioactivity test against green peach aphid, airbrush foliar spray
Format: in vivo
study conditions: 2.5 ppm, death rate after 48 hrs
Description: Compounds were dissolved in mixed solvent (acetone:methanol=1:1), and diluted to required concentration with water containing 0.1% of tween 80. Diamond back moth, armyworm, peach aphid and carmine spider mite were used as targets and the method of spraying by airbrush was used for determination of insecticidal biassays. Method: Filter papers were put in culture dishes (Diameter=6 cm), and water was dripped on filter papers for preserving moisture. […]
Each item that follows carries a reported control (test results against green peach aphid).
In your response, put the unit directly after the numeric value.

These solved cases illustrate the format of a correct answer.
>>> result("CCc1ncnc(NCCc2ccc(Oc3ccc(C(F)(F)F)cn3)cc2)c1Cl.Cl")
"100%"
>>> result("CCc1ncnc(NCCc2ccc(Oc3ccc(C(F)(F)F)cn3)cc2)c1Cl [Compound I-6756]")
"100%"
>>> result("CCc1ncnc(NCCc2ccc(Oc3ccc(C(F)(F)F)cn3)cc2)c1Cl [Compound I-6757]")
"100%"
>>> result("CCc1ncnc(NCCc2ccc(Oc3ccc(C(F)(F)F)cn3)cc2)c1Cl [Compound I-6758]")
"100%"

Considering CCc1ncnc(NCCc2ccc(Oc3ccc(C(F)(F)F)cc3)cc2)c1Cl , its control (test results against green peach aphid) with Green peach aphids (Myzus Persicae Sulzer) was recorded as 100%

Considering CCc1ncnc(NCCc2ccc(Oc3ccc(C(F)(F)F)cn3)cc2)c1Cl [Compound I-6765] , its control (test results against green peach aphid) with Green peach aphids (Myzus Persicae Sulzer) was recorded as 100%

Considering CCc1ncnc(NCCc2ccc(Oc3ccc(C#N)cc3F)cc2)c1Cl , its control (test results against green peach aphid) with Green peach aphids (Myzus Persicae Sulzer) was recorded as 100%

###

Each item that follows carries a reported Insecticidal activity against carmine spider mite (% ).
Tested on: carmine spider mite
assay info: bioactivity test against carmine spider mite, airbrush spray
Type: in vivo
study conditions: 600 mg/L; contrastive test
Experimental: Compounds were dissolved in mixed solvent (acetone:methanol=1:1), and diluted to required concentration with water containing 0.1% of tween 80. […] The method: Broadbean shoots with two true leaves in pot were taken, the healthy adults of carmine spider mite were inoculated to the leaves. The adults were counted and then sprayed with airbrush at the pressure of 0.7 kg/cm^2 and at dose of 0.5 ml. […] Scores were conducted and mortalities were calculated after 72 hrs.
Report the figure in % without appending any unit label.

Considering Cc1ncnc(NCCc2ccc(Oc3ccc(C(F)(F)F)cc3)nc2)c1Cl , its Insecticidal activity against carmine spider mite (% ) with carmine spider mite was recorded as 100

Considering CC(F)c1ncnc(NCCc2ccc(Oc3ncc(C(F)(F)F)cc3Cl)cc2)c1Cl (centres unmarked) [CK2, reference compound] , its Insecticidal activity against carmine spider mite (% ) with carmine spider mite was recorded as 100

Considering Cc1ncnc(NCc2ccc(Oc3ncc(C(F)(F)F)cc3Cl)cc2)c1Cl [CK23, reference compound] , its Insecticidal activity against carmine spider mite (% ) with carmine spider mite was recorded as 64

Considering CCc1ncnc(NCCc2ccc(Oc3ccccc3)nc2)c1Cl , its Insecticidal activity against carmine spider mite (% ) with carmine spider mite was recorded as 100

Considering CCc1ncnc(NCCc2ccc(Oc3ccc(C(F)(F)F)cc3)cc2)c1Cl.Cl , its Insecticidal activity against carmine spider mite (% ) with carmine spider mite was recorded as 100

###

Test system: cucumber downy mildew
assay info: protectant activity in vivo against cucumber downy mildew
study conditions: 100 mg/L; protectant activity
Each item that follows carries a reported control effect against cucumber downy mildew (%).
Report the figure in % without appending any unit label.

These solved cases illustrate the format of a correct answer.
>>> number("CCc1ncnc(NC(C)c2ccc(Oc3ccccc3)nc2)c1Cl (stereo not drawn) [CK8, reference compound]")
95
>>> number("CCc1ncnc(NCCc2ccc(Oc3ccc(Cl)cc3)nc2)c1Cl")
100
>>> number("CCc1ncnc(NCCc2ccc(Oc3ccc(C)cc3)nc2)c1Cl")
100
>>> number("Cc1nc(Cl)c(Cl)c(NCCc2ccc(Oc3ccccc3)nc2)n1")
100
>>> number("Cc1ncnc(NCCc2ccc(Oc3ccc(C(F)(F)F)cc3)nc2)c1Cl")
100

In plain terms, COc1ccc(Oc2ccc(CCNc3ncnc(C)c3Cl)cn2)cc1 has a documented control effect against cucumber downy mildew (%) of 100

In plain terms, Cc1ncnc(NCCc2ccc(Oc3ccccc3)nc2)c1Cl has a documented control effect against cucumber downy mildew (%) of 100

In plain terms, COc1ccc(Oc2ccc(CCNc3nc(C)nc(Cl)c3Cl)cn2)cc1 has a documented control effect against cucumber downy mildew (%) of 100

In plain terms, CCc1ncnc(NC(C)c2ccc(Oc3ccc(C(C)(C)C)cc3)nc2)c1Cl (stereo not drawn) [CK10, reference compound] has a documented control effect against cucumber downy mildew (%) of 82

###

Each item that follows carries a reported pest or weed control at 600 µg/mL.
System: carmine spider mite
assay info: bioactivity test against carmine spider mite, airbrush spray
Type: in vivo
study conditions: Tetranychus cinnabarinus, 72 h, 600 mg/L; contrastive test; read-out: Insecticidal activity against carmine spider mite (% )
Report the figure in % without appending any unit label.

These solved cases illustrate the format of a correct answer.
>>> number("CC(Cl)c1ncnc(NCCc2ccc(O)cc2)c1Cl (centres unmarked) [CK4, reference compound]")
75
>>> number("CCC(Nc1nc(Cl)nc(C(=O)OC)c1Cl)c1ccc(Oc2ncc(C(F)(F)F)cc2Cl)cc1 (centres unmarked) [CK35, reference compound]")
0
>>> number("FC(F)(F)c1cccnc1Oc1ccc(CCNc2nc(Cl)ncc2Cl)cc1 [CK81, reference compound]")
0
>>> number("CCc1ncnc(NCCc2ccc(Oc3ccc(Cl)cc3)cc2)c1Cl [II-297]")
100
>>> number("Cc1nc(Cl)cc(NCCc2ccc(Oc3ncc(C(F)(F)F)cc3Cl)cc2)n1 [CK68, reference compound]")
4

In plain terms, Cc1ncnc(NC(=O)Cc2ccc(Oc3ccc(C(F)(F)F)cc3)cc2)c1Cl [CK61, reference compound] has a documented pest or weed control at 600 µg/mL of 0

In plain terms, Cc1ncnc(NC(C)c2ccc(Oc3ccc(C(F)(F)F)cn3)cc2)c1Cl (centres unmarked) [CK28, reference compound] has a documented pest or weed control at 600 µg/mL of 100

In plain terms, CC(Cl)c1ncnc(NCCc2ccc(Oc3ccc(C(F)(F)F)cc3)cc2)c1Cl (centres unmarked) [CK20, reference compound] has a documented pest or weed control at 600 µg/mL of 100

###

Tested on: cucumber downy mildew
assay info: protectant activity in vivo against cucumber downy mildew
study conditions: Cucumis sativus, 168 h, read-out: protectant activity against cucumber downy mildew in vivo, 25 ppm
property label: pest or weed control at 25 ppm (%)
Report the figure in % without appending any unit label.

These solved cases illustrate the format of a correct answer.
>>> number("CCc1ncnc(NCCc2ccc(Oc3ccc(Cl)cc3)cc2)c1Cl")
100
>>> number("CCc1ncnc(NCCc2ccc(Oc3ccc(C(F)(F)F)cn3)cc2)c1Cl")
100

# ---- query molecule ----
In plain terms, FC(F)c1ncnc(NCCc2ccc(Oc3ccc(Cl)cc3Cl)nc2)c1Cl has a documented pest or weed control at 25 ppm of 100

###

Each item that follows carries a reported pest or weed control at 6.25 µg/mL.
Test system: wheat powdery mildew
assay info: protectant activity in vivo against wheat powdery mildew
study conditions: Triticum aestivum, 168 h, read-out: control effect against wheat powdery mildew (%), 6.25 mg/L; protectant activity
In your response, put the unit directly after the numeric value.

These solved cases illustrate the format of a correct answer.
>>> result("CCc1ncnc(OCCc2ccc(OCc3ccccc3)cc2)c1Cl [CK14, reference compound]")
"0%"
>>> result("FC(F)(F)c1cccnc1Oc1ccc(CCNc2cc(Cl)nc(Cl)n2)cc1 [CK82, reference compound]")
"0%"
>>> result("CCc1ncnc(OCCc2ccc(Oc3ccccc3)cc2)c1Cl [CK13, reference compound]")
"0%"
>>> result("Cc1ncnc(NCc2ccc(Oc3ccc(C(F)(F)F)cn3)cc2)c1Cl [CK22, reference compound]")
"0%"
>>> result("CC(Cl)c1ncnc(NCCc2ccc(Oc3ccc(C(F)(F)F)cc3)cc2)c1Cl (centres unmarked) [CK20, reference compound]")
"0%"

In plain terms, CCc1ncnc(NCc2ccc(Oc3nc(Cl)c(Cl)cc3Cl)cc2)c1Cl [CK36, reference compound] has a documented pest or weed control at 6.25 µg/mL of 0%

In plain terms, COc1cc(CCNc2ncnc(C(F)F)c2Cl)ccc1Oc1ccc(Cl)cc1 [II-10583] has a documented pest or weed control at 6.25 µg/mL of 100%

In plain terms, Cc1ncnc(NC(C)c2ccc(Oc3nc(Cl)c(Cl)cc3Cl)cc2)c1Cl (centres unmarked) [CK29, reference compound] has a documented pest or weed control at 6.25 µg/mL of 40%
